system: MDA-MB-453; experiment: drug sensitivity score (DSS), in combination with BLU9931 (DSS (weighted AUC score)); higher = more sensitive (stronger viability decrease); extreme values may be limits of the assay; conditions: BLU9931 100 nM; 72 h
Let's look at some compounds and their measured drug sensitivity score.
Reply briefly: the number, and no unit.

Examples from the recorded data:
Cc1ccc(C(=O)Nc2cccc(C(F)(F)F)c2)cc1Nc1nc(-c2cccnc2)nc2c1cnn2C [NVP-BHG712]
1.2
COC(=O)N[C@@H](C)CNc1nccc(-c2cn(C(C)C)nc2-c2cc(Cl)cc(NS(C)(=O)=O)c2F)n1 [Encorafenib]
0
C=CC(=O)Nc1cccc(Nc2nc(Nc3ccc(OCCOC)cc3)ncc2F)c1 [Spebrutinib]
0.9

Quick note, drug sensitivity score for CS(=O)(=O)N1CCN(Cc2cc3nc(-c4cccc5[nH]ncc45)nc(N4CCOCC4)c3s2)CC1 [Pictilisib] landed at 17.4
